Documented pIC50 across a set of compounds
Target: Sodium channel protein type 10 subunit alpha (Mus musculus, UniProt Q6QIY3)
Sequence (Q6QIY3 whole entry): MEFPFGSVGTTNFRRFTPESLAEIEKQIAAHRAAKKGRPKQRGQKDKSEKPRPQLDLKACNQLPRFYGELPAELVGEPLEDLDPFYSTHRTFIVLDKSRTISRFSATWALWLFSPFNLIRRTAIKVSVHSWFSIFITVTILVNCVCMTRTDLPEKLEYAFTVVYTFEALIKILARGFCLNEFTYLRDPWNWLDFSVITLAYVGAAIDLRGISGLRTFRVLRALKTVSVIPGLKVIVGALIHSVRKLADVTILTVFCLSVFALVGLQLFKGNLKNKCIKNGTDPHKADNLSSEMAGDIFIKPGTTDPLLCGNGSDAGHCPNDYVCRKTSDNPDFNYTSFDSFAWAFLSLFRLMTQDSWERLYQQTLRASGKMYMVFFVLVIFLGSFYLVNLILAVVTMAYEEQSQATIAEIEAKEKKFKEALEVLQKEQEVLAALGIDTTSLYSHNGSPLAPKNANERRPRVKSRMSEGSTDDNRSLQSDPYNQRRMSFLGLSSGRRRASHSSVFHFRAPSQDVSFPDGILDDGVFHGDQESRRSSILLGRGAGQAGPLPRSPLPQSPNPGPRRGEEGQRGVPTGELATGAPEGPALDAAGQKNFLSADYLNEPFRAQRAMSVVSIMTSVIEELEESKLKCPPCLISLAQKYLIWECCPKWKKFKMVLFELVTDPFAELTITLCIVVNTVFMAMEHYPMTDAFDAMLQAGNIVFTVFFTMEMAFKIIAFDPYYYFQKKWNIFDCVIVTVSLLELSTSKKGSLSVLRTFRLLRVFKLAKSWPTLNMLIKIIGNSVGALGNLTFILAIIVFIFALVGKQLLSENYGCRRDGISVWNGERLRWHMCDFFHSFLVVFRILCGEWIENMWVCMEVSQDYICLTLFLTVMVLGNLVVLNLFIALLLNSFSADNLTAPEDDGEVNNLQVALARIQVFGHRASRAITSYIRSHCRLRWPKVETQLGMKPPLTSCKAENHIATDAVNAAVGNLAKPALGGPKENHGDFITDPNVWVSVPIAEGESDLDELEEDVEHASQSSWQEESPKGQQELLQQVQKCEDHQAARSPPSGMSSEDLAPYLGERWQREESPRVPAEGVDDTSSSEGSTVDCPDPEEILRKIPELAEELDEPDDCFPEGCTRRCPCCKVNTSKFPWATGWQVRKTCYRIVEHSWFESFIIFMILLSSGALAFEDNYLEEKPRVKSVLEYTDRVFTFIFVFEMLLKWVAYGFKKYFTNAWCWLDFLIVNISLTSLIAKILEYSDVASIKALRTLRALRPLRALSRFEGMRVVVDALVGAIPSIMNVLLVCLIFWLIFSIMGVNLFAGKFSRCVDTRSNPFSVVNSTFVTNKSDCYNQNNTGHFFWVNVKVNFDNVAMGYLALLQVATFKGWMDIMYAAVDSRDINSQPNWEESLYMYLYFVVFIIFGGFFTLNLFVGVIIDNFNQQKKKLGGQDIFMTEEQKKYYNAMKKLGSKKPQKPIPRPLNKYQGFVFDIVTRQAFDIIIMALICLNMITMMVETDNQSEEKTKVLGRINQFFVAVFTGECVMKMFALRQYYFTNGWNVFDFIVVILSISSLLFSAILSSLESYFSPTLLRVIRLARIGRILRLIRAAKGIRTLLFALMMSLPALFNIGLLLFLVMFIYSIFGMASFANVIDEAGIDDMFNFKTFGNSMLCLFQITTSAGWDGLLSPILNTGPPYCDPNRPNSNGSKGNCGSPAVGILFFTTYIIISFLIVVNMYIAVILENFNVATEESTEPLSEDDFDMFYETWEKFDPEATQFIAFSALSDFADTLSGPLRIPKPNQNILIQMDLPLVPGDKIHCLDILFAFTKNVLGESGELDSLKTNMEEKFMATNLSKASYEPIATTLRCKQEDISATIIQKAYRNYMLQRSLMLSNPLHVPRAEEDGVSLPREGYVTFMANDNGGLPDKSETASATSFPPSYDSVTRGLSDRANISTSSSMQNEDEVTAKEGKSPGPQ
Assay: Inhibition of mouse recombinant Nav 1.8 channel expressed in HEK293 cells by isotopic efflux assay
pIC50: −log10 of the molar value.

smi	pIC50
CN1CCc2ccc(NC(=O)c3ccc(-c4ccc(Cl)cc4)o3)cc21	5.34
Cc1ccnc(NC(=O)c2ccc(-c3ccc(Cl)cc3)o2)c1	6.02
Cc1cccc(NC(=O)c2cc(-c3ccc(Cl)cc3)co2)c1	5.28
O=C(Nc1cccc(C2=NCCO2)c1)c1ccc(-c2ccc(Cl)cc2)o1	5.60
Cc1cccc(NC(=O)c2ccc(-c3ccc(OC(F)(F)F)cc3)o2)c1	6.54
